Cited source for all entries: patent US10799507B2

# system-under-test: JAK3 (Homo sapiens (Human), UniProt P52333)
# Sequence (P52333 822-1111): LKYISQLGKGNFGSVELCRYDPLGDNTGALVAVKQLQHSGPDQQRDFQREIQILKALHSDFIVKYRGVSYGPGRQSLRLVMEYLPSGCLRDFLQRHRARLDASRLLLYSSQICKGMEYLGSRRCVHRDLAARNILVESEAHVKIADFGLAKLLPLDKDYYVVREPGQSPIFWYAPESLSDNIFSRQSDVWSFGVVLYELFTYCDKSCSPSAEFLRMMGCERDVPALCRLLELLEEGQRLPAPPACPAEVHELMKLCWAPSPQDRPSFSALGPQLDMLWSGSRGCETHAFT
# test-description: JAK kinase assay (HTRF), JAK3
# Format: biochemical
# measurement-parameters: catalytic domain, ATP at Km (2 μM)
Listed next: entries and their corresponding EC50.
Note: unit nM is implicit; provide only the numeric part.

• N#C[C@@H]1C[C@H]1CNC(=O)C1CCN(c2ncnc3[nH]ccc23)CC12CC2 (some centres unmarked) = 35
• N#Cc1ccc([C@@H](O)CNC(=O)[C@H]2CCN(c3ncnc4[nH]ccc34)CC23CC3)cc1 = 6.5
• C[C@H](NC(=O)[C@H]1CCN(c2ncnc3[nH]ccc23)CC12CC2)[C@H](O)c1ccc(F)cc1 = 15.7
• O=C(N[C@@H](CO)[C@H](O)c1ccc(F)cc1)[C@H]1CCN(c2ncnc3[nH]ccc23)CC12CC2 = 22.7

Input: Kindly indicate its recorded EC50. Item: C[C@H](NC(=O)[C@H]1CCN(c2ncnc3[nH]ccc23)CC12CC2)c1ccc(C#N)cc1F
Output: 17.6

Input: Fill in EC50 for record C[C@H](NC(=O)C1CCN(c2ncnc3[nH]ccc23)CC12CC2)c1cccc(C#N)c1 (some centres unmarked)
Output: 38

Input: Write down EC50 measured for item C[C@H](NC(=O)C1CCN(c2ncnc3[nH]ccc23)CC12CC2)c1ccccc1 (some centres unmarked)
Output: 31.1

Input: # return recorded EC50 for input C[C@H](NC(=O)[C@H]1CCN(c2ncnc3[nH]ccc23)CC12CC2)c1ccc(C#N)cn1
Output: 40.3

* * *

# system-under-test: UniProt P23458
# Sequence (P23458 850-1154): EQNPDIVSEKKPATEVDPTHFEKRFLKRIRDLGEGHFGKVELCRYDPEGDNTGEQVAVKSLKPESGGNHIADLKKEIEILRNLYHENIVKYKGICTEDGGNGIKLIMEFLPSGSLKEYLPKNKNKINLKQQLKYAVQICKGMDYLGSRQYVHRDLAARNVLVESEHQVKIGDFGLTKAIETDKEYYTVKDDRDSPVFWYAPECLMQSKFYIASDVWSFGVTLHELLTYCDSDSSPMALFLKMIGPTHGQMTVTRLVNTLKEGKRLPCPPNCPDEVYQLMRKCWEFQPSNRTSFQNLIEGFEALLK
# test-description: JAK kinase assay (HTRF), JAK1
# Format: biochemical
# measurement-parameters: catalytic domain, ATP at Km (7 μM)
measured-parameter: EC50 (nM)
Respond with the bare value in nM.

- N#Cc1ccc([C@@H](O)CNC(=O)[C@H]2CCN(c3ncnc4[nH]ccc34)CC23CC3)cc1 [Example 29]: 1.4
- N#CCC1(CNC(=O)C2CCN(c3ncnc4[nH]ccc34)CC23CC3)CC1 (centres unmarked) [Example 112]: 11.3
- C[C@H](NC(=O)[C@H]1CCN(c2ncnc3[nH]ccc23)CC12CC2)[C@@H](O)c1cccnc1 [Example 151]: 10.9
- O=C(OCC1(CO)CC1)[C@H]1CCN(c2ncnc3[nH]ccc23)CC12CC2 [Example 156]: 4
- COc1ccc([C@@H](C)NC(=O)C2CCN(c3ncnc4[nH]ccc34)CC23CC3)cc1F (some centres unmarked) [Example 124]: 18.6
- COc1cc(C#N)ccc1CNC(=O)[C@H]1CCN(c2ncnc3[nH]ccc23)CC12CC2 [Example 71]: 5.8
- O=C(NC[C@H](O)C1CCOCC1)[C@H]1CCN(c2ncnc3[nH]ccc23)CC12CC2 [Example 10]: 0.8

Would you kindly look at the next entry?
Input: Return value of EC50 for input CC(CO)(NC(=O)C1CCN(c2ncnc3[nH]ccc23)CC12CC2)c1ccccc1 (centres unmarked) [Example 118] , no commentary.
Output: 13.1

* * *

# system-under-test: TYK2 (Homo sapiens (Human))
# test-description: JAK kinase assay (HTRF), TYK2
# measurement-parameters: catalytic domain, ATP at Km (13 μM)
pEC50: −log10 of the molar value.
Label TRUE when pEC50 is at or above 7; otherwise label FALSE.

Previously resolved entries follow.
* O=C(NCC1(CO)CC(F)(F)C1)[C@H](O)CNC(=O)[C@H]1CCN(c2ncnc3[nH]ccc23)CC12CC2 | FALSE
* O=C(NCC1CC(F)(F)C1)[C@H]1CCN(c2ncnc3[nH]ccc23)CC12CC2 | TRUE
* C[C@H](NC(=O)[C@H]1CCN(c2ncnc3[nH]ccc23)CC12CC2)c1ccc(C#N)c(F)c1 | TRUE
* N#C[C@@H]1C[C@H]1CNC(=O)C1CCN(c2ncnc3[nH]ccc23)CC12CC2 (stereo partly shown) | FALSE
* O=C(OCC1(CO)CS(=O)(=O)C1)[C@H]1CCN(c2ncnc3[nH]ccc23)CC12CC2 | TRUE
* O=C(NC[C@H](O)c1ccccc1)C1CCN(c2ncnc3[nH]ccc23)CC12CC2 (stereo partly shown) | FALSE
* O=C(N[C@@H](CO)C1CCCCC1)[C@H]1CCN(c2ncnc3[nH]ccc23)CC12CC2 | TRUE
* C[C@H](NC(=O)C1CCN(c2ncnc3[nH]ccc23)CC12CC2)c1ccccc1 (stereo partly shown) | FALSE

Input: # check: pEC50 of C[C@@H](NC(=O)[C@H]1CCN(c2ncnc3[nH]ccc23)CC12CC2)c1ccc(C#N)c(F)c1 is greater than or equal to 7
Output: FALSE

Input: Check if pEC50 >= 7 (inclusive). Item: O=C(NCC1(CO)CCCC1)[C@H]1CCN(c2ncnc3[nH]ccc23)CC12CC2
Output: TRUE

Input: Assess whether reported pEC50 for N#Cc1ccc(CNC(=O)[C@H]2CCN(c3ncnc4[nH]ccc34)CC23CC3)cc1F sits at 7 or higher.
Output: TRUE

Input: Given O=C(N[C@@H](CO)c1ccccn1)[C@H]1CCN(c2ncnc3[nH]ccc23)CC12CC2 , state whether its pEC50 is at least 7.
Output: FALSE

* * *

# system-under-test: JAK2 (Homo sapiens (Human), UniProt O60674)
# Sequence (O60674 849-1124): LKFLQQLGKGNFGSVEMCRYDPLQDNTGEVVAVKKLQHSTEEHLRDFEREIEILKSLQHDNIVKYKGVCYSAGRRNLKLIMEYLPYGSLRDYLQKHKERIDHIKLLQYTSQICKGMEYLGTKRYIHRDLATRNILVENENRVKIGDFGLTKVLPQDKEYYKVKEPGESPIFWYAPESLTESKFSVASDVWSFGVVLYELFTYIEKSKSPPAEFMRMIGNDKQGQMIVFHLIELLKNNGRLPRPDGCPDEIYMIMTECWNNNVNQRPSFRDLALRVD
# test-description: JAK kinase assay (HTRF), JAK2
# measurement-parameters: catalytic domain, ATP at Km (4 μM)
# note: boundary value 9 nM maps to Not fulfilled; EC50 below it maps to Fulfilled

The examples below pair each entry with its known result.
- O=C(NC[C@@H](O)c1ccc(F)cn1)[C@H]1CCN(c2ncnc3[nH]ccc23)CC12CC2: Fulfilled
- O=C(N[C@H](CO)Cc1ccccc1)C1CCN(c2ncnc3[nH]ccc23)CC12CC2 (stereo partly shown): Not fulfilled
- C[C@H](NC(=O)[C@H]1CCN(c2ncnc3[nH]ccc23)CC12CC2)[C@@H](O)c1ccc(C#N)cc1: Fulfilled

Input: # check: EC50 < 9 nM for C[C@H](NC(=O)C1CCN(c2ncnc3[nH]ccc23)CC12CC2)c1ccc(C#N)cc1 (stereo partly shown)
Output: Fulfilled

Input: Just wondering, is EC50 of N#Cc1cccc(CNC(=O)C2CCN(c3ncnc4[nH]ccc34)CC23CC3)c1 (stereo not shown) below 9 nM?
Output: Fulfilled

* * *

Measured pEC50 accompanies every entry in the list below.
# system-under-test: TYK2 (Homo sapiens (Human), UniProt P29597)
# Sequence (P29597 871-1187): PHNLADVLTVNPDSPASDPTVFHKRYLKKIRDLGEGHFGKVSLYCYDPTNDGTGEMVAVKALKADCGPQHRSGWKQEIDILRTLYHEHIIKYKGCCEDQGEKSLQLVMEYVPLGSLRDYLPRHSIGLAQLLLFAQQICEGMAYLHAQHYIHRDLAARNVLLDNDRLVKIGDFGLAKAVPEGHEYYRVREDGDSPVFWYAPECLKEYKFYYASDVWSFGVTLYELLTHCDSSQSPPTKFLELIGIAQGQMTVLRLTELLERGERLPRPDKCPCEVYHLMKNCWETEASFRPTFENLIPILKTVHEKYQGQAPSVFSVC
# test-description: JAK kinase assay (HTRF), TYK2
# measurement-parameters: catalytic domain, ATP at Km (13 μM)
# Protocol: Human baculovirus-expressed JAK1, 2, 3 and TYK2 were purchased from Carna Biosciences, Inc. All four purified enzymes contain only the catalytic domain. […] Inhibition of phosphorylation of a synthetic peptide was measured in an HTRF-based assay using the TK substrate-Biotin from the Cisbio HTRFKinEASE TK kit. […] The HTRF signal is read using an Envision plate reader. […]
Scale: negative log10 of molar concentration, which is what pEC50 denotes.

Worked cases, answers included:
• N#Cc1ccc([C@@H](CO)NC(=O)[C@H]2CCN(c3ncnc4[nH]ccc34)CC23CC3)nc1 [Example 108] = 6.46
• C[C@H](NC(=O)[C@H]1CCN(c2ncnc3[nH]ccc23)CC12CC2)[C@H](O)c1ccc(F)cn1 [Example 107] = 6.90
• N#Cc1ccc([C@@H](CO)NC(=O)C2CCN(c3ncnc4[nH]ccc34)CC23CC3)cc1 (stereo partly shown) [Example 94] = 6.01
• O=C(N[C@@H](CO)c1ccc(F)cc1CO)[C@H]1CCN(c2ncnc3[nH]ccc23)CC12CC2 [Example 100] = 6.61

Input: Please supply the value of reported pEC50 for the item COc1cccc(CNC(=O)C2CCN(c3ncnc4[nH]ccc34)CC23CC3)c1 (stereo not shown) [Example 119]
Output: 6.27

Input: Give the value of pEC50 reported for the following: CC(CO)(NC(=O)C1CCN(c2ncnc3[nH]ccc23)CC12CC2)c1ccccc1 (stereo not shown) [Example 118]
Output: 6.08

Input: Provide measured pEC50 value, entry: COc1cc(C#N)ccc1[C@H](C)NC(=O)[C@H]1CCN(c2ncnc3[nH]ccc23)CC12CC2 [Example 97]
Output: 6.50

Input: // fetch pEC50 given entry N#Cc1ccc([C@@H](O)CNC(=O)[C@H]2CCN(c3ncnc4[nH]ccc34)CC23CC3)cc1 [Example 29]
Output: 7.39

Input: Give reported pEC50 value for O=C(OCC1(CO)CCCC1)[C@H]1CCN(c2ncnc3[nH]ccc23)CC12CC2 [Example 159]
Output: 8.29

* * *

# test-description: in vitro metabolic stability in human liver microsomes
# Format: in vitro ADME
# measurement-parameters: human, liver microsomes, 0.5 μM compound, 0.5 mg/mL microsomes, NADPH, 40 min, 37° C.; read-out: Human liver microsome Clapp (apparent intrinsic clearance)
measured-parameter: CLint scaled at 0.5 μM (mL/min/kg)
Write it as a number; the unit mL/min/kg goes unstated.

• O=C(NCC1CCCC1)C1CCN(c2ncnc3[nH]ccc23)CC12CC2 (stereo not shown) [Example 82] = 198

Input: Please give measured CLint scaled at 0.5 μM of the following entry: O=C(NC[C@H](O)c1ccccc1)C1CCN(c2ncnc3[nH]ccc23)CC12CC2 (stereo partly shown) [Example 103]
Output: 128

Input: # return recorded CLint scaled at 0.5 μM for input N#Cc1ccc([C@@H](CO)NC(=O)C2CCN(c3ncnc4[nH]ccc34)CC23CC3)cc1 (stereo partly shown) [Example 94]
Output: 23

Input: Complete the entry with CLint scaled at 0.5 μM for O=C(N[C@@H](CO)c1ccccc1)C1CCN(c2ncnc3[nH]ccc23)CC12CC2 (stereo partly shown) [Example 69]
Output: 44

Input: Using known records, supply CLint scaled at 0.5 μM for C[C@@H](NC(=O)C1CCN(c2ncnc3[nH]ccc23)CC12CC2)c1ccc(C#N)cc1 (stereo partly shown) [Example 111]
Output: 111

Input: Quick one: give measured CLint scaled at 0.5 μM for O=C(N[C@@H](CO)C1CCCCC1)[C@H]1CCN(c2ncnc3[nH]ccc23)CC12CC2 [Example 24]
Output: 159

Input: Give the reported CLint scaled at 0.5 μM for this compound. N#Cc1ccc(CNC(=O)C2CCN(c3ncnc4[nH]ccc34)CC23CC3)cc1 (stereo not shown) [Example 26]
Output: 78

Input: Give the value of CLint scaled at 0.5 μM reported for the following: O=C(NCC1CC(F)(F)C1)C1CCN(c2ncnc3[nH]ccc23)CC12CC2 (stereo not shown) [Example 56]
Output: 63
